I'd be grateful if you could share measured IC50 for these entries.
# tested system: Human MAT2A (Homo sapiens, UniProt P31153)
# Construct: Human MAT2A: Cepter, amino acids 1-395 Clone ID 334, lot 00023-148; purchased Cepter clone ID 334, lot 00023-148
# Sequence (P31153 whole entry, the tested form may be a part): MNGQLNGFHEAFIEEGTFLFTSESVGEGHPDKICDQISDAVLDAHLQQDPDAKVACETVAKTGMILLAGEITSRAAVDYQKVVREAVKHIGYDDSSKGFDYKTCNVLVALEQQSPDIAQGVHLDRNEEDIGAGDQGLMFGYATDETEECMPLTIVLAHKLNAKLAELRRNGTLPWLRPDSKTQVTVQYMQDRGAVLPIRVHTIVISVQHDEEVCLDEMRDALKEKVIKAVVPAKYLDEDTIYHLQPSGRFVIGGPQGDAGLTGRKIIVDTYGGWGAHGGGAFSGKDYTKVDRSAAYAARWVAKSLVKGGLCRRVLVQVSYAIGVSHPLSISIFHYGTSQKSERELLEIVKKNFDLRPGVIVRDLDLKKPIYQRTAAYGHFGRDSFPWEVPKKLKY
# assay name: Phosphate Sensor Fluorescence Assay (Biologic Example A)
# Format: biochemical
# experimental parameters: MAT2A inhibition, Biological Example A procedure (Compounds 1.001-1.028); 500 uM L-methionine, 500 uM ATP

CC(c1c[nH]cn1)n1c(=O)nc(N2CC[C@@H](O)C2)c2ccc(C(F)(F)F)cc21 (mixture of isomers) : 10 to 200 nM
CNc1nc(=O)n(Cc2c[nH]c(C(F)(F)F)n2)c2cc(C(F)(F)F)ccc12 : 1000 to 10000 nM
C[C@@H](c1c[nH]cn1)n1c(=O)nc(N2CC[C@@H](O)C2)c2ccc(C(F)(F)F)cc21 (single isomer, unassigned) : 10 to 200 nM
CC(c1c[nH]cn1)n1c(=O)nc(N2CC[C@@H](CO)C2)c2ccc(C(F)(F)F)cc21 (mixture of isomers) : 200 to 500 nM
C[C@@H](c1c[nH]cn1)n1c(=O)nc(N(C)C)c2ccc(C(F)(F)F)cc21 (single isomer, unassigned) : 10 to 200 nM
C[C@@H](c1c[nH]cn1)n1c(=O)nc(N2CCCC2)c2ccc(C(F)(F)F)cc21 (single isomer, unassigned) : 10 to 200 nM

I need IC50 for every entry listed below, if you could help.
1. CNc1nc(=O)n(Cc2c[nH]cn2)c2cc(Cl)ccc12
2. CC(c1c[nH]cn1)n1c(=O)nc(N(C)C)c2ccc(C(F)(F)F)cc21 (centres unmarked)
3. C[C@H](c1c[nH]cn1)n1c(=O)nc(N(C)C)c2ccc(C(F)(F)F)cc21 (single isomer, unassigned)
4. C[C@H](c1c[nH]cn1)n1c(=O)nc(N2CC[C@@H](O)C2)c2ccc(C(F)(F)F)cc21 (single isomer, unassigned)
5. CNc1nc(=O)n(Cc2c[nH]nn2)c2cc(C3CC3)ccc12
6. C[C@H](c1c[nH]cn1)n1c(=O)nc(N2CCCC2)c2ccc(C(F)(F)F)cc21 (single isomer, unassigned)
7. CNc1nc(=O)n(Cc2c[nH]cn2)c2cc(C3CC3)ccc12

(A)
["10 to 200 nM", "10 to 200 nM", "10 to 200 nM", "10 to 200 nM", "1000 to 10000 nM", "10 to 200 nM", "10 to 200 nM"]

I need IC50 for every entry listed below, if you could help.
1. CNc1nc(=O)n([C@H](C)c2c[nH]cn2)c2cc(C(F)(F)F)ccc12 (single isomer, unassigned)
2. C[C@@H](c1c[nH]cn1)n1c(=O)nc(N2CCC2)c2ccc(C(F)(F)F)cc21 (single isomer, unassigned)
3. CC(c1c[nH]cn1)n1c(=O)nc(N2CC[C@H](O)C2)c2ccc(C(F)(F)F)cc21 (mixture of isomers)
4. CO[C@H]1CCN(c2nc(=O)n([C@H](C)c3c[nH]cn3)c3cc(C(F)(F)F)ccc23)C1 (single isomer, unassigned)

(A)
1: 10 to 200 nM; 2: 10 to 200 nM; 3: 200 to 500 nM; 4: 200 to 500 nM
